- experimental-system: Mutant CD33-GFP M15 (Q171A) on 293FT cells (UniProt P20138)
- Sequence (P20138 18-364 Q171A): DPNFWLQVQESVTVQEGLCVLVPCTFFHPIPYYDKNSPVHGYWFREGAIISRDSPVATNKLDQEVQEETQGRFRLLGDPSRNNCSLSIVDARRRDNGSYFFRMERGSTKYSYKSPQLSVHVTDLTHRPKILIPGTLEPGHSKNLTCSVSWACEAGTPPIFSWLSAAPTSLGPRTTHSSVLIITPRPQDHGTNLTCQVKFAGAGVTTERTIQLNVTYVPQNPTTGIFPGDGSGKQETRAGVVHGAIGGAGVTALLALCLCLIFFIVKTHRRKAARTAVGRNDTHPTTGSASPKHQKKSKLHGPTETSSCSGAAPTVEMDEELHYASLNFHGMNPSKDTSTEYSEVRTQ
- assay-name: FACS, mutant CD33-GFP on 293FT cells

binder	FACS binding data
sdCD33_10 (VHH) VHH: QVQLVETGGGLVRAGGSLRLSCAASGRTADIYNIGWFRQAPGKEREFVAAITWIGRTPYYADAVKGRFAFSTDSAKNTVSLQMDNLKPEDTGVYYCNAAHYLEGNTDYYWGQGTQVTVSS	98.9
sdCD33_11 (VHH, sdAb from a naive llama phage library; also called 430; sdAb430) VHH: AVQLVESGGGLVQAGGSLRLSCAASGDTFANYAMGWFRQAPGKEREFVAAISWSDSSTHYADSVKGRFTIPRDNAKNAVYLQMDQLKPEDMAVYYCYAYIRGVGEVRYVDYWGQGTQVTVSS	97.2
